# TARGET_OR_TEST_SYSTEM: T1, EsCas13d, nuclease-dead (Eubacterium siraeum, UniProt B0MS50, R295A;H300A;R849A;H854A)
# T1 sequence: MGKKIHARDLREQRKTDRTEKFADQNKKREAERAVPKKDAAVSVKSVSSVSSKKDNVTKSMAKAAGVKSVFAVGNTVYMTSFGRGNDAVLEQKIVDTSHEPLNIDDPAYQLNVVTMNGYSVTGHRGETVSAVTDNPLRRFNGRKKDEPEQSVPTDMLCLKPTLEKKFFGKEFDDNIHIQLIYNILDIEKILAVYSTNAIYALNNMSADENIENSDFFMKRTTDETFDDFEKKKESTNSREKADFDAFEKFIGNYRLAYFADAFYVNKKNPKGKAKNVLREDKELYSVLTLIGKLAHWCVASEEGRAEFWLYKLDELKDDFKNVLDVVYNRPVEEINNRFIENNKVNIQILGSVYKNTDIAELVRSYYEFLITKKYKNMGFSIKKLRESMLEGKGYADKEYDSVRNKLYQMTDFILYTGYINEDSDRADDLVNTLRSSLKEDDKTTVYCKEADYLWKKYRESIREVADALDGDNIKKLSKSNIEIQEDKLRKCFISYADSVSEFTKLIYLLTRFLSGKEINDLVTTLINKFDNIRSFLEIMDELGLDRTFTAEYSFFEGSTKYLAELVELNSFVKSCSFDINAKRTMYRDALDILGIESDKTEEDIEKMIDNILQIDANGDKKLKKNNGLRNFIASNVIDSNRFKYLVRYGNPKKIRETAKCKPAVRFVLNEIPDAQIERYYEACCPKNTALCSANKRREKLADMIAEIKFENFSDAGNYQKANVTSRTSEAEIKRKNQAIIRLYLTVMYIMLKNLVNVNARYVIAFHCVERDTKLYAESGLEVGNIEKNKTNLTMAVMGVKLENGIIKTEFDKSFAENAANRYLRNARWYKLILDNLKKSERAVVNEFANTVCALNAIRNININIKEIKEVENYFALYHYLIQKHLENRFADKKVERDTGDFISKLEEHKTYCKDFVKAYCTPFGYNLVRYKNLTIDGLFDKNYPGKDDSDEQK
# ASSAY_TEXT: crRNA (strand 1, pre-loaded); Mg2+; 40 mM Tris-HCl pH 7.5, 150 mM NaCl, 6 mM MgCl2, 1 mM DTT, 0.1% Tween-20, 0.2 mg/ml BSA; 25 C; 10 min per concentration, then washed
# EXPERIMENTAL_SETUP: tags: His6-TwinStrep-SUMO cleaved; N-terminal SNAP kept (SNAP-Surface 488); label: 3' end held by stalled T7 RNA polymerase
ENDPOINT_NAME: Kd (nM)
Just the number please, in nM, no unit attached.

Asked: Tell me its Kd given target 2 MT 5'PFS GCC 3'PFS AAG (mixed) RNA 1: CACCCGUGCAAAAUUGCAGGGGUCUAAAACCUUCUCCAAAUUGUUUCAUCCU RNA 2: GGGAAUGGAUCCACAUCUACGAAUUCGCCAGGAUGAAACAAUUUGGAGAAGAAGAGAUCGGAAGAGCACACGU as the entry.
Given back: 22
